All values here come from the nanobody polyreactivity screen of Harvey et al. (2022).

Assay: yeast display, Sf9 membrane polyspecificity reagent, FACS + sequencing; frameworks hold sequencing errors

- SEQUENCE_INPUT: "QVQLVESGGGLVQAGGSLRLSCAASGRTFDIYAMGWYRQAPGKERELVADITWSDGTTYYADSVKGRFTISRDNAKNTVYLQMNSLKPEDTAVYYCNAYTVYAYDYWGQGTQVTVSS"
  polyreactivity (PSR sort gate): "low polyreactivity"
- SEQUENCE_INPUT: "QVQLEESGGGLVQAGGSLRLSCAASGRTFGWNVMGWYRQAPGKERELVAAISGGGTSTYYADSVKGRFTISRDNAKNTVYLQMNSLNPEDTAVYYCNAYYPGSYYPRSGRYDYWGQGTQVTVSS"
  polyreactivity (PSR sort gate): "high polyreactivity"
- SEQUENCE_INPUT: "QLQLVESGGGLVQAGGSLRLSCAASGFIFYLYAMGWYRQAPGKDRELVAAISWSGGITYYADSVKGRFTISRDNAKNTVYLQMNSLKPEDTAVNYCNAVGASASDGDSWGQGTQVTVSS"
  polyreactivity (PSR sort gate): "high polyreactivity"
- SEQUENCE_INPUT: "QVQLVESGGGLVQAGGSLRLNCAASGITCEYYAMGWYREAPGKERDLVAAISWSGGSTYYADSVKGRFTNSRDNANNTVYLQINSLKTEDTAVYDFYAVGFTYLDLYGYWGQGTQLTVSS"
  polyreactivity (PSR sort gate): "high polyreactivity"
- SEQUENCE_INPUT: "QVQLVESGRGLVQAGGSLRLSCAASGFIFSNAIGWYRQAPGKERELVAAISRSGGSTYYADSVKGRVTISRDNAKNTVSLQMNSLKPEDTAVEYCAARSYPRSPVRYDYWGQGTQVTVSS"
  polyreactivity (PSR sort gate): "high polyreactivity"
- SEQUENCE_INPUT: "KYYADSVKGRFTISRDNAKNTVYLQMNSLNPEDTAVYYCNAGYYISFNPYDYWGQGTQVTVSW"
  polyreactivity (PSR sort gate): "low polyreactivity"
